# target_of_assay: T1, human CD1a expressed on cells (human, UniProt P06126 17-327; P61769 21-119)
# T1 construct: also called HEK - CD1a; C1R - CD1a
# assay_explanation: flow cytometry, HEK-293 cells, 0.0316 µg/ml antibody
Listed here are binders together with their documented Fluorescence Intensity Geomean (normalized to background).
Give your result in fold over background as a bare value.

binder: 110 (VR12112) (antibody, V domains shown, also called OX110; antibody 110) VH: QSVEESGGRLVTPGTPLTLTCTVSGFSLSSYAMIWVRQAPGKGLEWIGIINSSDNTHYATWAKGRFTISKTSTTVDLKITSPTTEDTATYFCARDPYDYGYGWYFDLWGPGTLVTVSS VL: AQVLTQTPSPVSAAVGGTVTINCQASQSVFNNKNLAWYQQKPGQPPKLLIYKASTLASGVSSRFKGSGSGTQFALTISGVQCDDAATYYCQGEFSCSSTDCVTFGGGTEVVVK
quantitative_result: 8.9

binder: 77A (VR11851) (antibody, V domains shown, also called OX77a; antibody 77a) VH: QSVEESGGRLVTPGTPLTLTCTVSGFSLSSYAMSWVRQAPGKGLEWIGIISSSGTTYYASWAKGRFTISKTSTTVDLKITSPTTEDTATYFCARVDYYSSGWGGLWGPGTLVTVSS VL: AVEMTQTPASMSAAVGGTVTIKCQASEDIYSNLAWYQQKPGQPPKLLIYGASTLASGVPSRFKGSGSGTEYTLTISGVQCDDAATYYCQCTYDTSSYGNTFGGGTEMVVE
quantitative_result: 24.9

binder: 116 (VR12117) (antibody, V domains shown, also called OX116) VH: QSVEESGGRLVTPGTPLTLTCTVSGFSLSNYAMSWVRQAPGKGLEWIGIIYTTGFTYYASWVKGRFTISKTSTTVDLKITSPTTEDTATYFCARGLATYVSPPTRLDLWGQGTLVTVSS VL: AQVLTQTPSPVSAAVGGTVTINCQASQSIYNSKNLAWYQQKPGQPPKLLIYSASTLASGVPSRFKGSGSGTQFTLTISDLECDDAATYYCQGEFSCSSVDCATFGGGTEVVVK
quantitative_result: 15.7

Shifting focus to the binder that follows.
Query: Tell me the measured Fluorescence Intensity Geomean (normalized to background) of 111 (VR12113) (antibody, V domains shown, also called OX111) VH: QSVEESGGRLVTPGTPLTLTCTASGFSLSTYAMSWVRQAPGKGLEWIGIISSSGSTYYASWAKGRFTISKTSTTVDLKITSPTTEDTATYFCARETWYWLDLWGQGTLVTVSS VL: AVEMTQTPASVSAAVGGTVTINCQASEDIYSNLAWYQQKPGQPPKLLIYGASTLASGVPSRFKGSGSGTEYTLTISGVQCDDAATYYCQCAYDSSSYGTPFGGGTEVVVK , please.
Reply: 11.1

Reference source for all entries: patent US20250289893A1
